Hey, just so you know, these numbers are from paper PMC9574860.

Target: Parkinson's disease protein 7 (PARK7/DJ1) (human)
Assay: primary screen, percent inhibition; higher = more effect of the substance
Conditions: 100 µM
The whole screen tested about 7,900 compounds, of which about 400 (5.1%) showed an effect of 50% or more. For the sample, strong results were picked, then their nearest neighbours and some compounds at random.
readoutType: Inhibition % (%)
Note: unit % is implicit; provide only the numeric part.

*Q* Give the measured Inhibition % for Cc1nc(C#N)c(NC(=O)CSCC2CCCCO2)o1 (stereo not drawn)
*A* 12.5

*Q* Give the measured Inhibition % for CCc1ccccc1NC(=O)CCl
*A* 13.2

*Q* Give the measured Inhibition % for C=CC(=O)NCCc1cscn1
*A* 5.76

###

Target: Parkinson's disease protein 7 (PARK7/DJ1) (human, UniProt Q99497)
Sequence (Q99497 whole entry, looked up): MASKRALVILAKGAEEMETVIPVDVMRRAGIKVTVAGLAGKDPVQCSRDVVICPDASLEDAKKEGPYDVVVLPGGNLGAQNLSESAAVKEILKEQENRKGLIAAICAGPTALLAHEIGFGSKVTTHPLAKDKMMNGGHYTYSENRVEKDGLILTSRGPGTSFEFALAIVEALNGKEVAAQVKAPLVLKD
Test: primary screen, percent inhibition; higher = more effect of the substance
Settings: 100 µM
Among all 7,900 compounds or so, about 400 (5.1%) showed an effect of 50% or more. The list comes from a sample in which strong results are over-represented; it also holds close analogues and randomly drawn compounds.
readoutType: Inhibition % (%)
Note: unit % is implicit; provide only the numeric part.

Some entries whose results are on file:
[
  {
    "molecule": "Cc1cccc(OCC(=O)Nc2ccc(S(=O)(=O)F)cc2)c1",
    "unitName": "%",
    "testResult": 9.17
  },
  {
    "molecule": "COc1ccc(CNC(=O)n2ccnc2)cc1OC",
    "unitName": "%",
    "testResult": 6.72
  },
  {
    "molecule": "O=C(NCC1CCCC1)n1ccnc1",
    "unitName": "%",
    "testResult": 40.7
  },
  {
    "molecule": "C=CC(=O)N1CCN(CCc2ccc(F)cc2)CC1",
    "unitName": "%",
    "testResult": 8.07
  },
  {
    "molecule": "COCc1ncsc1C(=O)Nc1cccc(S(=O)(=O)F)c1",
    "unitName": "%",
    "testResult": 8.52
  },
  {
    "molecule": "COc1ccc(NC(=O)C(C#N)=Cc2ccco2)cn1",
    "unitName": "%",
    "testResult": 10.5
  }
]

*Q* Write down measured Inhibition % (Parkinson's disease protein 7 (PARK7/DJ1) (human, UniProt Q99497)) for this molecule. Cl.O=S(=O)(F)C1CCCNC1 (centres unmarked)
*A* 8.33

*Q* Write down measured Inhibition % (Parkinson's disease protein 7 (PARK7/DJ1) (human, UniProt Q99497)) for this molecule. O=C(CCCCl)N1CCCCC1
*A* 2.86

*Q* Write down measured Inhibition % (Parkinson's disease protein 7 (PARK7/DJ1) (human, UniProt Q99497)) for this molecule. Cc1ccccc1CCNC(=O)n1ccnc1
*A* 101

*Q* Write down measured Inhibition % (Parkinson's disease protein 7 (PARK7/DJ1) (human, UniProt Q99497)) for this molecule. O=C(CCl)NCc1ccc(N2CCOCC2)c(F)c1
*A* 10.8

*Q* Write down measured Inhibition % (Parkinson's disease protein 7 (PARK7/DJ1) (human, UniProt Q99497)) for this molecule. CC(C)(C(=O)CCl)N1C(=O)c2ccccc2C1=O
*A* 5.76

*Q* Write down measured Inhibition % (Parkinson's disease protein 7 (PARK7/DJ1) (human, UniProt Q99497)) for this molecule. CS(=O)(=O)n1cnc2ccccc21
*A* 11.4

*Q* Write down measured Inhibition % (Parkinson's disease protein 7 (PARK7/DJ1) (human, UniProt Q99497)) for this molecule. Cc1nc2c(C(=O)Nc3cccc(S(=O)(=O)F)c3)cccc2o1
*A* 43.6

*Q* Write down measured Inhibition % (Parkinson's disease protein 7 (PARK7/DJ1) (human, UniProt Q99497)) for this molecule. O=S(=O)(F)CCn1nnc2ccccc21
*A* 8.8

###

Listing: Inhibition % of selected molecules
Biological target: Parkinson's disease protein 7 (PARK7/DJ1) (human)
Assay: primary screen, percent inhibition; higher = more effect of the substance
Details: 100 µM
The campaign covered roughly 7,900 compounds. About 400 (5.1%) showed an effect of 50% or more. The sample as a whole holds a higher share of strong results than the screen did.
Note: unit % is implicit; provide only the numeric part.

Some entries whose results are on file:
[
  {
    "molecule": "O=C(c1cccs1)N1CCC(S(=O)(=O)F)CC1",
    "measuredOn": "Parkinson's disease protein 7 (PARK7/DJ1) (human)",
    "unitName": "%",
    "Inhibition %": 10.8
  },
  {
    "molecule": "O=C(c1cccs1)N1CCCC(S(=O)(=O)F)C1 (stereo not shown)",
    "measuredOn": "Parkinson's disease protein 7 (PARK7/DJ1) (human)",
    "unitName": "%",
    "Inhibition %": 73.5
  },
  {
    "molecule": "COc1ccccc1NS(=O)(=O)C=Cc1ccccc1",
    "measuredOn": "Parkinson's disease protein 7 (PARK7/DJ1) (human)",
    "unitName": "%",
    "Inhibition %": 7.7
  },
  {
    "molecule": "O=C1OCCC1N1CCN(C(=O)c2cccs2)CC1 (stereo not shown)",
    "measuredOn": "Parkinson's disease protein 7 (PARK7/DJ1) (human)",
    "unitName": "%",
    "Inhibition %": 9.27
  },
  {
    "molecule": "N#Cc1ccc(NS(=O)(=O)C=Cc2ccccc2)cc1",
    "measuredOn": "Parkinson's disease protein 7 (PARK7/DJ1) (human)",
    "unitName": "%",
    "Inhibition %": 10.5
  },
  {
    "molecule": "O=C(c1cccs1)N1CCCC(CS(=O)(=O)F)C1 (stereo not shown)",
    "measuredOn": "Parkinson's disease protein 7 (PARK7/DJ1) (human)",
    "unitName": "%",
    "Inhibition %": 90.1
  },
  {
    "molecule": "COc1ccc(NS(=O)(=O)c2ccc(S(=O)(=O)F)cc2)cn1",
    "measuredOn": "Parkinson's disease protein 7 (PARK7/DJ1) (human)",
    "unitName": "%",
    "Inhibition %": 100
  },
  {
    "molecule": "O=C(c1ccccc1)N1CC(S(=O)(=O)F)C1",
    "measuredOn": "Parkinson's disease protein 7 (PARK7/DJ1) (human)",
    "unitName": "%",
    "Inhibition %": 35.6
  },
  {
    "molecule": "O=C(CCl)N1CCN(C(=O)c2cccs2)CC1",
    "measuredOn": "Parkinson's disease protein 7 (PARK7/DJ1) (human)",
    "unitName": "%",
    "Inhibition %": 40.3
  }
]

Field: next molecule
*Q* Give the measured Inhibition % for Cc1cc(NS(=O)(=O)C=Cc2ccccc2)ccn1
*A* 29.4

###

Target: Parkinson's disease protein 7 (PARK7/DJ1) (human, UniProt Q99497)
Assay: primary screen, percent inhibition; higher = more effect of the substance
Conditions: 100 µM
Screen size: about 7,900 compounds; about 400 (5.1%) showed an effect of 50% or more. For the sample, strong results were picked, then their nearest neighbours and some compounds at random.
# cutoff 10% applies to Inhibition %; >= gives criterion met, < gives criterion not met

[
  {
    "compound": "O=C(CCl)Nc1ccc2c(c1)OC1(CCCCC1)O2",
    "measuredOn": "Parkinson's disease protein 7 (PARK7/DJ1) (human, UniProt Q99497)",
    "assignedCategory": "criterion met"
  },
  {
    "compound": "O=C(CCCl)Nc1ccc2c(c1)OCO2",
    "measuredOn": "Parkinson's disease protein 7 (PARK7/DJ1) (human, UniProt Q99497)",
    "assignedCategory": "criterion met"
  },
  {
    "compound": "C=CC(=O)N1CCN(Cc2ccon2)CC1",
    "measuredOn": "Parkinson's disease protein 7 (PARK7/DJ1) (human, UniProt Q99497)",
    "assignedCategory": "criterion not met"
  }
]

*Q* Threshold query (Inhibition % >= 10%) on C=CC(=O)NC1CCC2(CC1)CC2(F)F (stereo not shown)
*A* criterion not met

*Q* Threshold query (Inhibition % >= 10%) on CC(=O)N1CCc2sc(C(=O)CCl)cc2C1
*A* criterion met

*Q* Threshold query (Inhibition % >= 10%) on C=CC(=O)N(C)Cc1cnc(N(C)C)nc1
*A* criterion not met

*Q* Threshold query (Inhibition % >= 10%) on CSC1(CNc2cccc(C#N)n2)CCC1
*A* criterion met

###

Listing: Inhibition % of selected compounds
Biological target: Parkinson's disease protein 7 (PARK7/DJ1) (human, UniProt Q99497)
Experiment: primary screen, percent inhibition; read as competition with a fluorescent probe by fluorescence polarization; higher = more effect of the substance
Settings: 100 µM
In all, about 7,900 compounds went through this assay and about 400 (5.1%) showed an effect of 50% or more. What follows is part of a selection rich in strong results, with near analogues and random picks from the rest.
Note: unit % is implicit; provide only the numeric part.

[
  {
    "compound": "CC(C)NC(=O)C(C#N)=Cc1cccc(O)c1",
    "measuredOn": "Parkinson's disease protein 7 (PARK7/DJ1) (human, UniProt Q99497)",
    "Inhibition % [%]": 19.6
  }
]

Field: next compound
*Q* Write down measured Inhibition % (Parkinson's disease protein 7 (PARK7/DJ1) (human, UniProt Q99497)) for this compound. CCCC(C#N)NS(=O)(=O)c1ccc(S(=O)(=O)F)cc1 (stereo not shown)
*A* 33.3
